meta.source: the supplement of paper PMC5998384

tested on: HeLa Kyoto; experiment: melting temperature (median over replicates), in situ; higher = more thermally stable; conditions: cell cycle stage: mitosis;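 note: HeLa Kyoto cells synchronized by double thymidine or nocodazole block, proteins quantified by TMT10plex mass spectrometry, three independent biological replicates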
experimental-endpoint: melting temperature (°C)
Numbers only, in °C.

sequence-data	unit-name	melting temperature
MAGPRVEVDGSIMEGGGQILRVSTALSCLLGLPLRVQKIRAGRSTPGLRPQHLSGLEMIRDLCDGQLEGAEIGSTEITFTPEKIKGGIHTADTKTAGSVCLLMQVSMPCVLFAASPSELHLKGGTNAEMAPQIDYTVMVFKPIVEKFGFIFNCDIKTRGYYPKGGGEVIVRMSPVKQLNPINLTERGCVTKIYGRAFVAGVLPFKVAKDMAAAAVRCIRKEIRDLYVNIQPVQEPKDQAFGNGNGIIIIAETSTGCLFAGSSLGKRGVNADKVGIEAAEMLLANLRHGGTVDEYLQDQLIVFMALANGVSRIKTGPVTLHTQTAIHFAEQIAKAKFIVKKSEDEEDAAKDTYIIECQGIGMTNPNL [RTCA]	°C	54.4
MWSGRKLGSSGGWFLRVLGPGGCNTKAARPLISSAVYVKNQLSGTLQIKPGVFNEYRTIWFKSYRTIFSCLNRIKSFRYPWARLYSTSQTTVDSGEVKTFLALAHKWWDEQGVYAPLHSMNDLRVPFIRDNLLKTIPNHQPGKPLLGMKILDVGCGGGLLTEPLGRLGASVIGIDPVDENIKTAQCHKSFDPVLDKRIEYRVCSLEEIVEETAETFDAVVASEVVEHVIDLETFLQCCCQVLKPGGSLFITTINKTQLSYALGIVFSEQIASIVPKGTHTWEKFVSPETLESILESNGLSVQTVVGMLYNPFSGYWHWSENTSLNYAAYAVKSRVQEHPASAEFVLKGETEELQANACTNPAVHEKLKK [COQ3]	°C	56.3
MAAAAAAAAAAGAAGGRGSGPGRRRHLVPGAGGEAGEGAPGGAGDYGNGLESEELEPEELLLEPEPEPEPEEEPPRPRAPPGAPGPGPGSGAPGSQEEEEEPGLVEGDPGDGAIEDPELEAIKARVREMEEEAEKLKELQNEVEKQMNMSPPPGNAGPVIMSIEEKMEADARSIYVGNVDYGATAEELEAHFHGCGSVNRVTILCDKFSGHPKGFAYIEFSDKESVRTSLALDESLFRGRQIKVIPKRTNRPGISTTDRGFPRARYRARTTNYNSSRSRFYSGFNSRPRGRVYRGRARATSWYSPY [PABPN1]	°C	50.5
MAEPTVCSFLTKVLCAHGGRMFLKDLRGHVELSEARLRDVLQRAGPERFLLQEVETQEGLGDAEAEAAAGAVGGGGTSAWRVVAVSSVRLCARYQRGECQACDQLHFCRRHMLGKCPNRDCWSTCTLSHDIHTPVNMQVLKSHGLFGLNENQLRILLLQNDPCLLPEVCLLYNKGEALYGYCNLKDKCNKFHVCKSFVKGECKLQTCKRSHQLIHAASLKLLQDQGLNIPSVVNFQIISTYKHMKLHKMLENTDNSSPSTEHSQGLEKQGVHAAGAAEAGPLASVPAQSAKKPCPVSCEK [ZC3HAV1L]	°C	50.2

# input for lookup
Q: Query: melting temperature; subject: MVGSLNCIVAVSQNMGIGKNGDLPWPPLRNEFRYFQRMTTTSSVEGKQNLVIMGKKTWFSIPEKNRPLKGRINLVLSRELKEPPQGAHFLSRSLDDALKLTEQPELANKVDMVWIVGGSSVYKEAMNHPGHLKLFVTRIMQDFESDTFFPEIDLEKYKLLPEYPGVLSDVQEEKGIKYKFEVYEKND [DHFR]
Result: 49.1
